Biological target: Mer (Homo sapiens)
Construct: purchased Life Technologies
Sequence (Q12866 21-999): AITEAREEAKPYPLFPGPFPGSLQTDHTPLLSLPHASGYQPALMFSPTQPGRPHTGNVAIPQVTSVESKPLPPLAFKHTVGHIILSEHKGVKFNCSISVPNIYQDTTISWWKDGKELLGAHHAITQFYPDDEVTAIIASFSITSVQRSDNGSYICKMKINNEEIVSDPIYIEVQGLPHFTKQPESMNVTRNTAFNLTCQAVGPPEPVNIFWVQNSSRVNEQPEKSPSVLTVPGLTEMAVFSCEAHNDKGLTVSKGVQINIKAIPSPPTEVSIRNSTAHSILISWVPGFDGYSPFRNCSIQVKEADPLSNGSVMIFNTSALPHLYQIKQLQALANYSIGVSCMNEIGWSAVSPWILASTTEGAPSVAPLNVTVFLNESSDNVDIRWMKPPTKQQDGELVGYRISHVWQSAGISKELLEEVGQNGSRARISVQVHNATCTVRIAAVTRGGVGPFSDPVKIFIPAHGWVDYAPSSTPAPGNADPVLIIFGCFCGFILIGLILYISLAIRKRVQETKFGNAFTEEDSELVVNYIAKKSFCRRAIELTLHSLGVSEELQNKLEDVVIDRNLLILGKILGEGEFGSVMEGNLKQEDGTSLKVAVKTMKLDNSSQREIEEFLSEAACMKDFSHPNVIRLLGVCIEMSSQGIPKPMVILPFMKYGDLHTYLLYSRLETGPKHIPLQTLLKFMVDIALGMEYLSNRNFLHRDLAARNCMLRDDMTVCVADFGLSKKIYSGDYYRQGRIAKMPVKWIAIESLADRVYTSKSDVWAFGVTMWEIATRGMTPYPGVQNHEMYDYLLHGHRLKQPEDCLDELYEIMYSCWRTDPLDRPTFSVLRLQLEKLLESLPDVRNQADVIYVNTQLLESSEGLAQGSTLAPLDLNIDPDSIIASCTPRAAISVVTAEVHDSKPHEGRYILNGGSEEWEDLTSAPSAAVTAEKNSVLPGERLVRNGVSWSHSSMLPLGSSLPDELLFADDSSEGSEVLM
Experiment: LanthaScreen Eu kinase binding assay for Mer
Conditions: read-out: Mer kinase binding activity (Kd)
measuredProperty: Kd

Determine its reported Kd: `COc1cc2nccc(Oc3ccc(NC(=O)c4nn(C5CC5)cc4OC(C)C)nn3)c2cc1OC`
< 100 nM

Determine its reported Kd: `COc1cc2nccc(Oc3ccc(NC(=O)c4nn(C5CC5)cc4OCC(F)F)nc3)c2cc1OC`
< 100 nM

Determine its reported Kd: COc1cc2nccc(Oc3ccc(NC(=O)c4nn(C5CCNC5)cc4OCC(F)(F)F)nn3)c2cc1OC (stereo not drawn)
100 to 500 nM

Determine its reported Kd: `COCCn1cc(OCC(F)(F)F)c(C(=O)Nc2ccc(Oc3ccnc4cc(OC)c(OC)cc34)nn2)n1`
< 100 nM

Determine its reported Kd: `CCCn1cc(OCC(F)(F)F)c(C(=O)Nc2ccc(Oc3ccnc4cc(OC)c(OC)cc34)nn2)n1`
< 100 nM

Determine its reported Kd: `CNCCn1cc(OCC(F)(F)F)c(C(=O)Nc2ccc(Oc3ccnc4cc(OC)c(OC)cc34)cc2)n1`
100 to 500 nM

Determine its reported Kd: `CCCn1cc(OCC(F)F)c(C(=O)Nc2ccc(Oc3ccnc4cc(OC)c(OC)cc34)cn2)n1`
< 100 nM

Determine its reported Kd: `COc1cc2nccc(Oc3ccc(NC(=O)c4nn(C5COC5)cc4OCC(F)(F)F)nc3)c2cc1OC`
< 100 nM

Determine its reported Kd: COc1cc2nccc(Oc3ccc(NC(=O)c4nn(C5CCNC5)cc4OCC(F)(F)F)c(F)c3)c2cc1OC (stereo not drawn)
100 to 500 nM

Determine its reported Kd: `COc1cc2nccc(Oc3ccc(NC(=O)c4nn(CCCO)cc4OCC(F)(F)F)nc3)c2cc1OC`
< 100 nM

Determine its reported Kd: COc1cc2nccc(Oc3ccc(NC(=O)c4nn(C5CCN(C)C5)cc4OCC(F)(F)F)nn3)c2cc1OC (stereo not drawn)
100 to 500 nM

Determine its reported Kd: `COc1cc2nccc(Oc3ccc(NC(=O)c4nn(CC5CC5)cc4OCC(F)(F)F)nc3)c2cc1OC`
< 100 nM

Determine its reported Kd: `COc1cc2nccc(Oc3ccc(NC(=O)c4nn(C)cc4OCC(F)(F)F)cc3F)c2cc1OC`
< 100 nM

Determine its reported Kd: `COc1cc2nccc(Oc3ccc(NC(=O)c4nn(CCOC5CCC5)cc4OCC(F)(F)F)nc3)c2cc1OC`
< 100 nM

Determine its reported Kd: `COCCn1cc(OCC(F)(F)F)c(C(=O)Nc2ccc(Oc3ccnc4cc(OC)c(OC)cc34)nc2)n1`
< 100 nM
